# Test system: TrxR in A549 cell lysates
# test: Thioredoxin reductase activity in lysates of treated A549 cells
# Type: cell-based, human
# experimental.setup: A549 lysate, 24 h treatment at 5 μM, reading at 25 min
experimental.readout: Mean Diff. TrxR activity vs. veh (%)
Give bare numbers, in %.

// below: answered compounds
compound: C[n+]1ccn(Cc2ccccc2)[c]1[Au-]([Cl])([Cl])[Cl] [Compound 2]
numeric.readout: −5.148
//
compound: Cn1cc[n+](C)[c]1[Au-2]([Cl])[P+](c1ccccc1)(c1ccccc1)c1ccccc1 [Compound 8]
numeric.readout: −86.87
//
compound: Cn1cc[n+](C)[c]1[Au-]([Cl])([Cl])[Cl] [Compound 1]
numeric.readout: −16.73
//
compound: C[n+]1ccn(Cc2ccccc2)[c]1[Au-]([Br])([Br])[Br] [Compound 6]
numeric.readout: −17.37
//
compound: Cn1cc[n+](C)[c]1[Au-]([Br])([Br])[Br] [Compound 5]
numeric.readout: −11.58
//
compound: Clc1n[c]([Au-][P+](c2ccccc2)(c2ccccc2)c2ccccc2)n(Cc2ccccc2)c1Cl [Compound 7]
numeric.readout: −59.2

Briefly, Mean Diff. TrxR activity vs. veh measured for C[n+]1ccn(Cc2ccccc2)[c]1[Au-][Br] [Compound 4] : −3.861

----------
# Tested on: H1395
# test: MTT viability assay, H1395
# Assay type: cell-based, human
# experimental.setup: mean ± span, 48 h treatment, cell line without KRAS mutation
experimental.readout: log10 of IC50 (log10 of the value in µM)
Scale type: logarithmic (base 10). Underlying IC50 unit: µM.

// below: answered compounds
smiles.repr: Cn1cc[n+](C)[c]1[Au-]([Cl])([Cl])[Cl]
target.entity: H1395
numeric.readout: 1.67
--
smiles.repr: Clc1n[c]([Au-][P+](c2ccccc2)(c2ccccc2)c2ccccc2)n(Cc2ccccc2)c1Cl
target.entity: H1395
numeric.readout: 0.80

Count: 4. Required value per item: log10 of IC50.
1. Cn1cc[n+](C)[c]1[Au-]([Br])([Br])[Br]
2. Cn1cc[n+](C)[c]1[Au-2]([Cl])[P+](c1ccccc1)(c1ccccc1)c1ccccc1
3. C[n+]1ccn(Cc2ccccc2)[c]1[Au-]([Cl])([Cl])[Cl]
4. C[n+]1ccn(Cc2ccccc2)[c]1[Au-]([Br])([Br])[Br]

[1.69, 0.77, 1.23, 1.79]

Briefly, log10 of IC50 measured for C[n+]1ccn(Cc2ccccc2)[c]1[Au-][Br] : 1.04

----------
# Test system: H157
# test: MTT viability assay, H157
# Format: cell-based, human
# experimental.setup: mean ± span, 48 h treatment, cell line with KRAS mutation
experimental.readout: IC50 (µM)
One number for each entry, in µM.

smiles.repr: Cn1cc[n+](C)[c]1[Au-2]([Cl])[P+](c1ccccc1)(c1ccccc1)c1ccccc1
numeric.readout: 17

Then there is this compound:
Briefly, IC50 measured for Clc1n[c]([Au-][P+](c2ccccc2)(c2ccccc2)c2ccccc2)n(Cc2ccccc2)c1Cl : 8.5

----------
# test: Solution stability by UV-visible spectra over time
# Assay type: physicochemical
# experimental.setup: UV-visible spectra over time; DMSO, methanol, PBS buffered solutions
experimental.readout: stability in solution

smiles.repr: C[n+]1ccn(Cc2ccccc2)[c]1[Au-]([Br])([Br])[Br]
result: least stable in solution
--
smiles.repr: Cn1cc[n+](C)[c]1[Au-]([Br])([Br])[Br]
result: least stable in solution

----------
# target.entity: recombinant human DHFR (hDHFR) (Homo sapiens, UniProt P00374)
# Construct: made in house; host or cells: E. coli BL21, plasmid pET17b (gift of C. Robert Matthews)
# Sequence (P00374 whole entry): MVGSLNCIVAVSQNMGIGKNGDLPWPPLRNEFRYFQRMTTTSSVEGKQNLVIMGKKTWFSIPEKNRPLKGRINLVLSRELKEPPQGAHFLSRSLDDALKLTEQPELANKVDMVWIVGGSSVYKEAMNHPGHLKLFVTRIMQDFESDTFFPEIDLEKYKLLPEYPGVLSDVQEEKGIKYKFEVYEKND
# test: Cell-free human dihydrofolate reductase enzymatic activity
# Format: biochemical
# experimental.setup: H2F concentration 3.89 µM; sigmoidal fit; read-out: hDHFR IC50
experimental.readout: IC50

Briefly, IC50 measured for Cn1cc[n+](C)[c]1[Au-2]([Cl])[P+](c1ccccc1)(c1ccccc1)c1ccccc1 : 15 µM

----------
# Test system: TrxR in A549 cell lysates
# test: Thioredoxin reductase activity in lysates of treated A549 cells
# Type: cell-based, human
# experimental.setup: A549 lysate, 24 h treatment at 5 μM, reading at 110 min
experimental.readout: Mean Diff. TrxR activity vs. veh (%)
Numbers only, in %.

smiles.repr: C[n+]1ccn(Cc2ccccc2)[c]1[Au-][Br]
numeric.readout: −21.37

smiles.repr: Cn1cc[n+](C)[c]1[Au-]([Cl])([Cl])[Cl]
numeric.readout: −32.38

Then there is this molecule:
Briefly, Mean Diff. TrxR activity vs. veh measured for Cn1cc[n+](C)[c]1[Au-]([Br])([Br])[Br] : −33.68

Cited source for all entries: paper PMC11435220
